System: gastrischen Drüsenschläuche
Test: 14C-aminopyrine accumulation in isolated gastric glands (inhibition of gastric acid secretion)
Type: cell-based, Kaninchen
Details: after Carbachol stimulation (100 µM); read-out: IC50 Inhibition der stimulierten AP-Akkumulation
pIC50: −log10 of the molar value.
ASSAY_READOUT: pIC50

compound="CCS(=O)(=O)N(C)[C@@H]1c2cc(C#N)ccc2OC(C)(C)[C@H]1O (relative stereo) [293B]" assay_readout=pIC50 recorded_result=5.30

----------
System: gastrischen Drüsenschläuche
Test: 14C-aminopyrine accumulation in isolated gastric glands (inhibition of gastric acid secretion)
Format: cell-based, Kaninchen
Conditions: after Histamin stimulation (100 µM); read-out: IC50 Inhibition der stimulierten AP-Akkumulation
ASSAY_READOUT: IC50

molecule="CCS(=O)(=O)N(C)[C@@H]1c2cc(C#N)ccc2OC(C)(C)[C@H]1O (relative stereo) [293B]" recorded_result="20 µM"
